Items are presented alongside their recorded Concentration of guest molecule in solution.
- Method notes: Binary (carrier), ternary and quaternary supramolecular self-assembly systems of polymer, carrier building block and target: guest concentration over incubation time (Examples 1-56)
- Format: physicochemical
- Run parameters: ternary: 102H (0.25% where stated) + 301, carrier % not stated; 6 h
I only need the number, in µg/mL, no unit after it.

Would you please look over these solved cases?
>>> reading("COc1ccc(-n2nc(C(N)=O)c3c2C(=O)N(c2ccc(N4CCCCC4=O)cc2)CC3)cc1 [Apixaban]")
334.8
>>> reading("O=C1[C@H](CC[C@H](O)c2ccc(F)cc2)[C@@H](c2ccc(O)cc2)N1c1ccc(F)cc1 [Ezetimibe]")
168.1
>>> reading("C=CC(=O)N1CCC[C@@H](n2nc(-c3ccc(Oc4ccccc4)cc3)c3c(N)ncnc32)C1 [Ibrutinib]")
446.0
>>> reading("Cc1cn(-c2cc(NC(=O)c3ccc(C)c(Nc4nccc(-c5cccnc5)n4)c3)cc(C(F)(F)F)c2)cn1 [Nilotinib]")
227.2

Shifting focus to the compound that follows.
Problem: Please look up its Concentration of guest molecule in solution: CC(=O)c1c(C)c2cnc(Nc3ccc(N4CCNCC4)cn3)nc2n(C2CCCC2)c1=O [Palbociclib]
Result: 126.9
